method.notes: Pharmacokinetics in dogs (plasma concentration by HPLC)
Type: in vivo, dog (beagle)
condition.label: dog, plasma, po, 2 mg/kg/day, Dog 1, day 1; 2 mg/kg/day PO
endpoint: Tmax (h)

| compound | endpoint | uom | observed.value |
| --- | --- | --- | --- |
| c1cc(Nc2nccc(-c3cccs3)n2)cc(OCCn2ccnc2)c1 | Tmax | h | 1 |

[A] Cc1cc(Nc2nccc(-c3ccncc3)n2)ccc1N.Cl.Cl [Compound 2, reference compound]
[B] CCN(CC)CCOc1ccc(Nc2nccc(-c3ccncc3)n2)cc1.Cl.Cl [Compound 3, reference compound]
stdin: Hey, which is lower on measured Tmax, A or B ? Give the chosen item's label as your response.
stdout: A
(A: 0.5 h, B: 1 h)
